- tested system: NPY Y2 receptor (Homo sapiens)
- Sequence (P49146 1-381): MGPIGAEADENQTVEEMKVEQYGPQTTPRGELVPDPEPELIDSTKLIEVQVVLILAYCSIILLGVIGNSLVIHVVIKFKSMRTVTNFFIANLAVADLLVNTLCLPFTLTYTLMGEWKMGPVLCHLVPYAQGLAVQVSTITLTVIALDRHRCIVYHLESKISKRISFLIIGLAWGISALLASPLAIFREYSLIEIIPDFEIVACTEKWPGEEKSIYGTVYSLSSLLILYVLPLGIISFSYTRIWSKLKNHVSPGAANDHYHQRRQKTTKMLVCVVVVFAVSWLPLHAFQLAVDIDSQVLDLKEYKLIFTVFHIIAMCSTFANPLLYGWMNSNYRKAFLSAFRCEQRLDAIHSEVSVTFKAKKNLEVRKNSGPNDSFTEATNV
- method summary: Neuropeptide Y2 pKB assay (FLIPR, KAN-Ts cells stably expressing chimeric G proteins)
- Format: cell-based
- measurement setup: apparent pKB, modified Cheng-Prusoff correction
- Experimental: The assay was performed using the fluorimetric imaging plate reader (FLIPR) format as described in Dautzenberg, F. M., Biochemical Pharmacology 2005, 69, 1493. KAN-Ts cells stably expressing chimeric G proteins were seeded at a density of 100,000 cells into poly-d-lysine coated 384-well blackwall, clear-bottom microtiter plates (Corning, N.Y.). […] Apparent pKB was calculated as pKB=−log IC50/1+[conc agonist/EC50].
reported metric: Kb (µM)
Write the value in µM as a bare number.

// known answers, use as guide
molecule CCC(CC)C(=O)Nc1ccc(N2CCN(C(c3ccccc3)c3ncco3)CC2)c(Br)c1 (stereo not shown) , Kb observed: 0.0631

The measured Kb associated with CCC(CC)C(=O)Nc1ccc(N2CCN(C(c3ccccc3)c3nc4ccccc4s3)CC2)c(F)c1 (stereo not shown) reads 0.0708

Measured Kb, CCC(CC)C(=O)Nc1ccc(N2CCN(C(c3ccccc3)c3ncco3)CC2)c(F)c1 (single isomer, unassigned) [Compound 59] : 0.2

Value of measured Kb for the entry CCC(CC)C(=O)Nc1ccc(N2CCN(C(c3ccccc3)c3cccnc3)CC2)c(C#N)c1 (stereo not shown) : 0.0316

Lab book: Kb of CCC(CC)C(=O)Nc1ccc(N2CCN(C(c3ccccc3)c3noc(C)n3)CC2)c(F)c1 (stereo not shown) noted as 0.0126

Reported Kb of `CCC(CC)C(=O)Nc1ccc(N2CCN(C(c3ccccc3)c3ccccc3)CC2)c(F)c1` : 0.0794

For reference, reported Kb for CCC(CC)C(=O)Nc1ccc(N2CCN(C(c3ccccc3)c3noc(CF)n3)CC2)c(F)c1 (stereo not shown) stands at 0.0631

In plain terms, CCC(CC)C(=O)Nc1ccc(N2CCN(C(c3ccccc3)c3ccccn3)CC2)c(F)c1 (stereo not shown) has a documented Kb of 0.02

For record CCC(CC)C(=O)Nc1ccc(N2CCN(C(c3ccccc3)c3nc4ccccc4s3)CC2)c(C#N)c1 (stereo not shown) the listed Kb is 0.0501

Kb for CCC(CC)C(=O)Nc1ccc(N2CCN(C(c3ccccc3)c3nc4ccccc4o3)CC2)c(F)c1 (stereo not shown) is 0.1

More entries:
// Kb lookup, molecule = CCC(CC)C(=O)Nc1ccc(N2CCN(C(c3ccccc3)c3noc(-c4ccccc4)n3)CC2)c(F)c1 (stereo not shown) , result: 0.126

Form field Kb, entry N#Cc1cc(NC(=O)C2CC2)ccc1N1CCN(C(c2ccccc2)c2cccnc2)CC1 (stereo not shown) : 0.0316

Lab note: CCC(CC)C(=O)Nc1ccc(N2CCN(C(c3ccc(F)cc3)c3ncco3)CC2)c(C#N)c1 (stereo not shown) gave Kb of 0.0251

Source listed as patent US20120129870A1.
